Each recorded value in this set is attributed to PubChem BioAssay (NCI).

For each entry below, report its TGI value.
System: SNB-75 CNS
assay.details: NCI tumour cell line growth inhibition, 48 h
Give bare numbers, in µM.

>>> numeric_result("CC(/C=C/c1ccccc1)=N\\NC(=S)N/N=C(C)/C=C/c1ccccc1")
48.7
>>> numeric_result("Cc1c(Br)c(Br)c2c3c1nc(N1CCNCC1)n3CCC2")
4.1

From here, focus on the item given below.
The recorded TGI for entry C=C(Cl)[C@](Cl)(CBr)CC[C@@H](Br)C(C)(C)Cl equals 2.09

----------
Test system: MDA-MB-435
Reply using exactly one outcome from active, inactive

Some solved entries appear below for comparison.
>>> label_class("COc1cc(C2C=C(C)N=C3SC=C(C)N32)cc(OC)c1OC (stereo not drawn)")
"inactive"
>>> label_class("COC(=O)COc1ccccc1/C=C1/N=C(c2ccccc2)N(c2c(C)n(C)n(-c3ccccc3)c2=O)C1=O")
"inactive"

Now turn to the next molecule.
How was CC[C@]1(O)CC2CN(CCc3c([nH]c4ccccc34)C(C(=O)OC)(c3cc4c(cc3OC)N(C=O)[C@H]3[C@@](O)(C(=O)OC)[C@H](OC(C)=O)[C@]5(CC)[C@@H]6C[C@@H]6CN6CC[C@]43[C@@H]65)C2)C1 (stereo partly drawn) classified in this test? active

----------
Test system: IGROV1 ovarian
assay.details: NCI tumour cell line growth inhibition, 48 h
readout.name: TGI

Here's what some known entries look like.
>>> result("O=C(N[C@H](CO)[C@H](O)c1ccc([N+](=O)[O-])cc1)C(Cl)Cl")
"> 100 µM"
>>> result("CCOC(=O)CCCc1cc(=O)c2c(C)c3[nH]c4ccc(Cl)cc4c3c(C)c2[nH]1")
"86.4 µM"
>>> result("NNC(=O)N/N=C(/CC1(O)C(=O)Nc2ccc(Br)cc21)c1ccccc1 (centres undefined)")
"> 100 µM"
>>> result("CC(C)(Oc1cccc(N2CCC[C@@H](C(=O)N(Cc3ccc(-c4cn[nH]c4)cc3)C3CC3)C2)c1)C(=O)N1CCNCC1")
"26.8 µM"

# batch size: 4; output TGI per entry
1. COC(=O)C1=C(N)C2=C(N)Oc3ccccc3C2CC1=C(C#N)C#N (centres undefined)
2. O=S1(=O)C[C@H](NCc2ccccc2)[C@H](NCc2ccccc2)C1
3. Oc1ccc(I)c2cccnc12
4. COc1cccc(N2C(=N)/C(=C3\Nc4ccccc4S3)CC2=O)c1

1: 48.4 µM; 2: > 100 µM; 3: 39.3 µM; 4: > 100 µM

# batch size: 7; output TGI per entry
1. CC(=O)NNc1nc(C)c(C(=O)/C=C/c2ccc(N(C)C)cc2)s1
2. CC(NC1=NCCO1)c1ccsc1 (centres undefined)
3. C=CCc1cc(O)ccc1O
4. N#CC(Cl)CS(=O)(=O)c1ccccc1 (centres undefined)
5. CCN1C[C@@H](C)n2c(c(O)c3c(=O)n(Cc4ccc(F)c(Cl)c4)nc(C(=O)NC)c32)C1=O
6. CN1C(=O)[C@@H](CC2CCCC2)N(C2CCCC2)c2nc(Nc3cc(Cl)c(O)c(Cl)c3)ncc21
7. CC(=O)OC[C@@]1(C)[C@@H]2[C@@H]3[C@@]4(CO[C@]3(C)C(=O)[C@@]3(OC(C)=O)C[C@H](C)[C@H](OC(C)=O)[C@@H]3[C@H]4OC(C)=O)[C@H](OC(=O)c3ccccc3)C[C@@H]21

> 100 µM
> 100 µM
> 100 µM
38 µM
> 100 µM
> 100 µM
> 100 µM

# batch size: 4; output TGI per entry
1. CC(=O)[CH-]C(=O)c1ccccc1.CC(=O)[CH-]C(=O)c1ccccc1.CC(=O)[CH-]C(=O)c1ccccc1.[Cl-].[Hf+4]
2. CCN1CCCCCCCCCC(=N/O)/C(=N\O)C1
3. CC(O)C1(O)C(O)CC(OC2c3cc4c(c(O)c3[C@@H]3C[C@@]2(C)OC32C=c3cc[nH]c3=N2)C(=O)c2cccc(O)c2C4=O)OC1C (some centres undefined)
4. CC1(C)CCC2(C(=O)O)C(O)CC3(C)C(=CCC4C5(C)CCC(OC6OCC(O)C(O)C6OC6OCC(O)C(O)C6OC6OCC(O)C(OC7OC(CO)C(O)C(O)C7O)C6O)C(C)(C)C5CCC43C)C2C1 (centres undefined)

["> 100 µM", "> 100 µM", "3.22 µM", "> 100 µM"]
